Experiment: Phase 1b study in female adults with cystitis, plasma PK
Format: in vivo, human
Settings: female, human, plasma, oral, 450 mg, plasma, Day 1, PO450; read-out: Tmax, Geo. Mean
Experimental readout: Tmax (h)
Give the value in h but do not write h after it.

Requested read-out: Tmax. Entry: CN(C)c1cc(CNCC(C)(C)C)c(O)c2c1C[C@H]1C[C@H]3[C@H](N(C)C)C(O)=C(C(N)=O)C(=O)[C@@]3(O)C(O)=C1C2=O
2.21

====

Test: Phase 1b study in female adults with cystitis, plasma PK
Type: in vivo, human
Details: female, human, plasma, oral, 300 mg, plasma, Day 5, IV_PO300; read-out: Cmax, Median
Experimental readout: Cmax (ng/mL)
Dear colleague, please return just the value in ng/mL, with no unit written.

Can you look up the measured Cmax of CN(C)c1cc(CNCC(C)(C)C)c(O)c2c1C[C@H]1C[C@H]3[C@H](N(C)C)C(O)=C(C(N)=O)C(=O)[C@@]3(O)C(O)=C1C2=O for me?
1300

====

Assay: Phase 1b study in female adults with cystitis, plasma PK
Type: in vivo, human
Details: female, human, plasma, intravenous, 200 mg, plasma, Day 1, IV_PO300; read-out: AUC(0-24 hrs), Mean
Method: According to the study design, a randomized (1:1:1), open-label, parallel designed Phase 1b study comparing 3 dosing regimens of Compound 1 (9-[(2,2-dimethyl-propyl amino)-methyl-minocycline) in the treatment of female adults with cystitis was conducted. […] Blood samples were collected and analyzed for Compound 1 concentration at the following times. […]
Experimental readout: AUC(0-t) (ng·h/mL)
Answer in ng·h/mL, number only, no unit symbol.

Can you share its AUC(0-t)? I mean this molecule: CN(C)c1cc(CNCC(C)(C)C)c(O)c2c1C[C@H]1C[C@H]3[C@H](N(C)C)C(O)=C(C(N)=O)C(=O)[C@@]3(O)C(O)=C1C2=O
16000

====

Test: In vitro plasma protein binding (ultrafiltration), human plasma
Format: in vitro ADME
Details: male; human plasma; 10-10,000 ng/mL; mean±SD; read-out: mean unbound protein fraction (fu) in plasma
Experimental readout: fraction unbound
Keep it simple and answer with nothing but the number.

Give the measured fraction unbound of CN(C)c1cc(CNCC(C)(C)C)c(O)c2c1C[C@H]1C[C@H]3[C@H](N(C)C)C(O)=C(C(N)=O)C(=O)[C@@]3(O)C(O)=C1C2=O [Compound 1] .
0.787

====

Quick list: % R (resistance) per entry.
System: A. baumanii
Assay: In vitro MIC, 2010 surveillance isolates
Assay type: cell-based
Settings: L. Amer; CLSI breakpoints
Give the number; % is assumed, so skip it.

The examples below pair each entry with its known result.
NCC[C@H](O)C(=O)N[C@@H]1C[C@H](N)[C@@H](O[C@H]2O[C@H](CN)[C@@H](O)[C@H](O)[C@H]2O)[C@H](O)[C@H]1O[C@H]1O[C@H](CO)[C@@H](O)[C@H](N)[C@H]1O: 57.5
C[C@@H](O)[C@H]1C(=O)N2C(C(=O)O)=C(SCCN=CN)C[C@H]12: 75.6
C[C@H]1COc2c(N3CCN(C)CC3)c(F)cc3c(=O)c(C(=O)O)cn1c23: 86.9
C[C@H]1c2cccc(O)c2C(=O)C2=C(O)[C@]3(O)C(=O)C(C(N)=O)=C(O)[C@@H](N(C)C)[C@@H]3[C@@H](O)[C@@H]21: 15.3

Please turn your attention to the following entry.
Would you kindly share the measured % R (resistance) for CO/N=C(\C(=O)N[C@@H]1C(=O)N2C(C(=O)[O-])=C(C[N+]3(C)CCCC3)CS[C@H]12)c1csc(N)n1 [Cefepime] ?
78.9

====

Assay: Phase 1 studies, plasma pharmacokinetics (IV and oral)
Conditions: human, in vivo, iv, 100 mg
Experimental readout: Cmax

# input compound: CN(C)c1cc(CNCC(C)(C)C)c(O)c2c1C[C@H]1C[C@H]3[C@H](N(C)C)C(O)=C(C(N)=O)C(=O)[C@@]3(O)C(O)=C1C2=O ; wanted: its Cmax
~1800 ng/mL

====

System: Enterobacter spp
Assay: In vitro MIC, 2010 surveillance isolates
Format: cell-based
Settings: Europe; Eucast breakpoints
Recorded % R (resistance) by entry
Dear colleague, please return just the value in %, with no unit written.

C[C@@H](O)[C@H]1C(=O)N2C(C(=O)O)=C(SCCN=CN)C[C@H]12 [Imipenem]: 0
CO/N=C(\C(=O)N[C@@H]1C(=O)N2C(C(=O)O)=C(CSc3nc(=O)c(=O)[nH]n3C)CS[C@H]12)c1csc(N)n1 [Ceftriaxone]: 39
CO/N=C(\C(=O)N[C@@H]1C(=O)N2C(C(=O)[O-])=C(C[N+]3(C)CCCC3)CS[C@H]12)c1csc(N)n1 [Cefepime]: 2.4
NCC[C@H](O)C(=O)N[C@@H]1C[C@H](N)[C@@H](O[C@H]2O[C@H](CN)[C@@H](O)[C@H](O)[C@H]2O)[C@H](O)[C@H]1O[C@H]1O[C@H](CO)[C@@H](O)[C@H](N)[C@H]1O [Amikacin]: 0
C[C@H]1COc2c(N3CCN(C)CC3)c(F)cc3c(=O)c(C(=O)O)cn1c23 [Levofloxacin]: 73

Entry CN(C)c1cc(NC(=O)CNC(C)(C)C)c(O)c2c1C[C@H]1C[C@H]3[C@H](N(C)C)C(O)=C(C(N)=O)C(=O)[C@@]3(O)C(O)=C1C2=O [Tigecycline] : reported % R (resistance) = ?
1.2

====

Assay: Phase 1b study in female adults with cystitis, plasma PK
Format: in vivo, human
Conditions: female, human, plasma, oral, 300 mg, plasma, Day 5, PO300; read-out: AUC(0-24 hrs), Geo. Mean
Experimental readout: AUC(0-t) (ng·h/mL)
Kindly answer with a numeric value in ng·h/mL, unit omitted.

Query: AUC(0-t); subject: CN(C)c1cc(CNCC(C)(C)C)c(O)c2c1C[C@H]1C[C@H]3[C@H](N(C)C)C(O)=C(C(N)=O)C(=O)[C@@]3(O)C(O)=C1C2=O
12400

====

Assay: Phase 1b study in female adults with cystitis, plasma PK
Assay type: in vivo, human
Conditions: female, human, plasma, intravenous, 200 mg, plasma, Day 1, IV_PO300; read-out: Tmax, Mean
Experimental readout: Tmax (min)
Supply the numeric figure in min, leaving out any unit text.

Given CN(C)c1cc(CNCC(C)(C)C)c(O)c2c1C[C@H]1C[C@H]3[C@H](N(C)C)C(O)=C(C(N)=O)C(=O)[C@@]3(O)C(O)=C1C2=O , state its recorded Tmax.
53.8

====

Assay: Phase 1b study in female adults with cystitis, plasma PK
Format: in vivo, human
Conditions: female, human, plasma, oral, 450 mg, plasma, Day 5, PO450; read-out: Ctrough, Median
Experimental: According to the study design, a randomized (1:1:1), open-label, parallel designed Phase 1b study comparing 3 dosing regimens of Compound 1 (9-[(2,2-dimethyl-propyl amino)-methyl-minocycline) in the treatment of female adults with cystitis was conducted. […] Blood samples were collected and analyzed for Compound 1 concentration at the following times. […]
Experimental readout: concentration at 5 day (ng/mL)
The figure you give is taken to be in ng/mL; do not add the unit.

Which measured concentration at 5 day value corresponds to CN(C)c1cc(CNCC(C)(C)C)c(O)c2c1C[C@H]1C[C@H]3[C@H](N(C)C)C(O)=C(C(N)=O)C(=O)[C@@]3(O)C(O)=C1C2=O ?
503

====

Test system: E. faecium VS
Experiment: In vitro MIC, 2010 surveillance isolates
Assay type: cell-based
Settings: N America; CLSI breakpoints
Each entry below carries its recorded % R (resistance).
Numeric answer only, unit % assumed.

C[C@H]1COc2c(N3CCN(C)CC3)c(F)cc3c(=O)c(C(=O)O)cn1c23: 68.7
CN(C)c1cc(NC(=O)CNC(C)(C)C)c(O)c2c1C[C@H]1C[C@H]3[C@H](N(C)C)C(O)=C(C(N)=O)C(=O)[C@@]3(O)C(O)=C1C2=O: 0
C[C@H]1c2cccc(O)c2C(=O)C2=C(O)[C@]3(O)C(=O)C(C(N)=O)=C(O)[C@@H](N(C)C)[C@@H]3[C@@H](O)[C@@H]21: 31.3

So what does the record say about % R (resistance) for CN[C@H](CC(C)C)C(=O)N[C@H]1C(=O)N[C@@H](CC(N)=O)C(=O)N[C@H]2C(=O)N[C@H]3C(=O)N[C@H](C(=O)N[C@H](C(=O)O)c4cc(O)cc(O)c4-c4cc3ccc4O)[C@H](O)c3ccc(c(Cl)c3)Oc3cc2cc(c3O[C@@H]2O[C@H](CO)[C@@H](O)[C@H](O)[C@H]2O[C@H]2C[C@](C)(N)[C@H](O)[C@H](C)O2)Oc2ccc(cc2Cl)[C@H]1O ?
0

====

Experiment: Phase 1b study in female adults with cystitis, plasma PK
Format: in vivo, human
Conditions: female, human, plasma, intravenous, 200 mg, plasma, Day 1, IV_PO300; read-out: AUC(0-24 hrs), Geo. Mean
Experimental readout: AUC(0-t) (ng·h/mL)
Report the figure in ng·h/mL without appending any unit label.

Which AUC(0-t) is listed for CN(C)c1cc(CNCC(C)(C)C)c(O)c2c1C[C@H]1C[C@H]3[C@H](N(C)C)C(O)=C(C(N)=O)C(=O)[C@@]3(O)C(O)=C1C2=O ?
15600
